Test system: SNB-75 CNS
Test: NCI tumour cell line growth inhibition, 48 h
# Lookup of reported TGI keyed by entry
// note: answer is a bare numeric in µM

q: Supply TGI measured with SNB-75 CNS for O=C(Nc1ccc(Cl)c(Cl)c1)O/N=C\c1c(Cl)ccc([N+](=O)[O-])c1Cl .
a: 9.5

Others:
q: Enter TGI (test system SNB-75 CNS) for COc1cc(C(C)c2cc3c(cc2OCCO)OCO3)cc(OC)c1OC (stereo not given)
a: 4.34

q: Fetch value of TGI on SNB-75 CNS for CCCOC(=O)N1CCN(/[N+]([O-])=N/Oc2ccc([N+](=O)[O-])cc2[N+](=O)[O-])CC1 .
a: 36.1
